- measurementTarget: HLA-A*02:01 (Homo sapiens, UniProt P04439, D140Y/D185E/D98H/E176V/E277Q/G131W/G231S/I119V/I121R/I166T/I218V/L300P/L318F/N151K/N90K/P208A/P217A/Q86G/Q94H/R138H/R169H/T345S)
- procedureSummary: MHC binding assay: UV-ligand exchange and β2m ELISA (peptide exchange yield, Table 7)
- testSettings: binding of HLA-class I restricted peptides to HLA-A*02:01, UV-ligand exchange
measurementLabel: Peptide exchange (MHC class I binding score, peptide exchange yield)

Examples with their reported Peptide exchange (MHC class I binding score, peptide exchange yield) follow.
59 (ALADGIKSFLL; listed as Homo sapiens) [compound 59]
+++ (≥50% = +++)
88 (LLLPLELSLA; listed as Homo sapiens) [compound 88]
+++ (≥50% = +++)
175 (SLLDLVQSL; listed as Homo sapiens) [compound 175]
+++ (≥50% = +++)
225 (FLPQPVPLSV; listed as Homo sapiens) [compound 225]
+++ (≥50% = +++)
114 (LLFPSDVQTL; listed as Homo sapiens) [compound 114]
++ (≥20% = ++)
7 (ALLQALMEL; listed as Homo sapiens) [compound 7]
+++ (≥50% = +++)
213 (ILAVDGVLSV; listed as Homo sapiens) [compound 213]
+++ (≥50% = +++)
195 (VIIQNLPAL; listed as Homo sapiens) [compound 195]
+++ (≥50% = +++)

Fill in the blank: the reported Peptide exchange (MHC class I binding score, peptide exchange yield) of 38 (VLQQESNFL; listed as Homo sapiens) [compound 38] is ____.
++ (≥20% = ++)

Next record, please: 113 (FLFLKEVKV; listed as Homo sapiens) [compound 113]
++ (≥20% = ++)

Next record, please: 236 (KMSELQTYV; listed as Homo sapiens) [compound 236]
+++ (≥50% = +++)

---

- measurementTarget: HLA-A*02:01 (Homo sapiens, UniProt P04439, D140Y/D185E/D98H/E176V/E277Q/G131W/G231S/I119V/I121R/I166T/I218V/L300P/L318F/N151K/N90K/P208A/P217A/Q86G/Q94H/R138H/R169H/T345S)
- procedureSummary: MHC binding assay: UV-ligand exchange and β2m ELISA (peptide exchange yield, Table 7)
- testSettings: binding of HLA-class I restricted peptides to HLA-A*02:01, UV-ligand exchange
measurementLabel: Peptide exchange (MHC class I binding score, peptide exchange yield)

187 (SILKEDPFL; listed as Homo sapiens) [compound 187]
++ (≥20% = ++)
217 (LLWPSSVPA; listed as Homo sapiens) [compound 217]
+++ (≥50% = +++)
105 (AMLASQTEA; listed as Homo sapiens) [compound 105]
++ (≥20% = ++)
173 (RLIDIYKNV; listed as Homo sapiens) [compound 173]
+++ (≥50% = +++)

Fill in the blank: the reported Peptide exchange (MHC class I binding score, peptide exchange yield) of 9 (SLITGQDLLSV; listed as Homo sapiens) [compound 9] is ____.
+++ (≥50% = +++)

Next record, please: 183 (ALSYILPYL; listed as Homo sapiens) [compound 183]
+++ (≥50% = +++)

Next record, please: 12 (RLLDPKTIFL; listed as Homo sapiens) [compound 12]
+++ (≥50% = +++)

Next record, please: 121 (ALYVQAPTV; listed as Homo sapiens) [compound 121]
++ (≥20% = ++)

Next record, please: 4 (VLFGELPAL; listed as Homo sapiens) [compound 4]
+++ (≥50% = +++)
